study target: T1, hCEACAM1, human CEACAM1 ECD (35-428) (human, UniProt P13688 35-428)
T1 construct: With 24 amino acid extension containing a His-Tag; also called hEACAM1
T1 sequence: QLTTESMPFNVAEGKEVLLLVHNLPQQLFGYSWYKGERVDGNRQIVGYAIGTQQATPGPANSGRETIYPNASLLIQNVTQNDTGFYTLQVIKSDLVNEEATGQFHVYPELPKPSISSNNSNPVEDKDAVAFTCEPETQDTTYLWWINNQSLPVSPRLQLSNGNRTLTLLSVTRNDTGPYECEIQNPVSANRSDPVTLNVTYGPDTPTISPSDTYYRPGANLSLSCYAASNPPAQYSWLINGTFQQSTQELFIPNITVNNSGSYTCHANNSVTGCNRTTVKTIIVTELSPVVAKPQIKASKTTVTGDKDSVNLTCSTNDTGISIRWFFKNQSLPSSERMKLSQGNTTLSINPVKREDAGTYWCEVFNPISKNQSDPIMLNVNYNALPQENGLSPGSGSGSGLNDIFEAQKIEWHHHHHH
protocol notes: ELISA
experimental endpoint: percentage of binding compared to full binding with human CEACAM5 (%)

binder	value measured
huMAb2-3 (antibody, human IgG1, kappa, V domains shown, Humanized MAb2, human IgG1 / Ckappa; also called MAb2_VL1cVH1a-IgG1) VH: EVQLQESGPGLVKPGGSLSLSCAASGFVFSSYDMSWVRQTPERGLEWVAYISSGGGITYAPSTVKGRFTVSRDNAKNTLYLQMNSLTSEDTAVYYCAAHYFGSSGPFAYWGQGTLVTVSS VL: DIQMTQSPASLSASVGDRVTITCRASENIFSYLAWYQQKPGKSPKLLVYNTRTLAEGVPSRFSGSGSGTDFSLTISSLQPEDFATYYCQHHYGTPFTFGSGTKLEIKR	0.3
